Reference source for all entries: PubChem BioAssay (NCI)

System: SK-MEL-2 melanoma
test: NCI tumour cell line growth inhibition, 48 h
Reported TGI is given for each of the following compounds.

compound	assayedSystem	TGI
CC1(C)N=C(N)N=C(N)N1c1cc(Cl)ccc1Cl	SK-MEL-2 melanoma	> 100 µM
COc1ccc(C2C(Cl)C(=O)N2NC(=O)Cc2ccccc2)cc1 (stereo not given)	SK-MEL-2 melanoma	> 100 µM
O=P(O)(Cc1ccccc1)OCC1(O)OCC(O)C(O)C1O (stereo not given)	SK-MEL-2 melanoma	> 10 µM
Fc1ccc(-c2ccc(-c3nnc(-c4cc(F)c(Cl)cc4Cl)o3)o2)cc1Cl	SK-MEL-2 melanoma	> 100 µM
COc1ccc2[nH]c(Cl)c(/C=C3/C(=O)N(C)c4ccccc43)c2c1	SK-MEL-2 melanoma	> 100 µM
